biological target: PHL (Photorhabdus asymbiotica); test: Isothermal titration calorimetry of PHL with ligands; assay type: binding; details: ITC; KD,basic unit/(valency × KD,ligand), basic unit L-Fuc
Sequence (C7BLE4 entry or part of it): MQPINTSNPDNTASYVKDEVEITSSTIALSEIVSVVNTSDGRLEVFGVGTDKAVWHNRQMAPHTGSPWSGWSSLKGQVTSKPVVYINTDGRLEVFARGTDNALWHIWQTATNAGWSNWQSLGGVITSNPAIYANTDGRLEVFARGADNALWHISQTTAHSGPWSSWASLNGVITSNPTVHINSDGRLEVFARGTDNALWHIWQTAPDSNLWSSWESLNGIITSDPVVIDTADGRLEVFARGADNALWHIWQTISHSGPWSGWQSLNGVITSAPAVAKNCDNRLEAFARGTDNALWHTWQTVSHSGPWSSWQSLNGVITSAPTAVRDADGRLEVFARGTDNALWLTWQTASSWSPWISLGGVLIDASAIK
Field 'label' (enum: t / f). Set to t when β L-Fuc (affinity improvement factor) is strictly under 6; else f.

{"molecule": "C[C@H](O)[C@@H](O)[C@@H](O)[C@H](O)C=O [L -Fuc, L-fucose, reference compound]", "assigned-category": "t"}
{"molecule": "C[C@@H]1O[C@@H](CCn2cc(COCC(COCc3cn(CC[C@@H]4O[C@@H](C)[C@@H](O)[C@@H](O)[C@@H]4O)nn3)(COCc3cn(CC[C@@H]4O[C@@H](C)[C@@H](O)[C@@H](O)[C@@H]4O)nn3)COCc3cn(CC[C@@H]4O[C@@H](C)[C@@H](O)[C@@H](O)[C@@H]4O)nn3)nn2)[C@@H](O)[C@H](O)[C@@H]1O [Dendrimer 8]", "assigned-category": "f"}
{"molecule": "C[C@@H]1O[C@@H](CCN=[N+]=[N-])[C@@H](O)[C@H](O)[C@@H]1O [Azide 1]", "assigned-category": "f"}
{"molecule": "CO[C@@H]1O[C@@H](C)[C@@H](O)[C@@H](O)[C@@H]1O [α-Me-Fuc, methyl α-L-fucopyranoside, reference compound]", "assigned-category": "t"}
{"molecule": "C[C@@H]1O[C@@H](CCn2cc(COCC(COCc3cn(CC[C@@H]4O[C@@H](C)[C@@H](O)[C@@H](O)[C@@H]4O)nn3)(COCc3cn(CC[C@@H]4O[C@@H](C)[C@@H](O)[C@@H](O)[C@@H]4O)nn3)COCC(COCc3cn(CC[C@@H]4O[C@@H](C)[C@@H](O)[C@@H](O)[C@@H]4O)nn3)(COCc3cn(CC[C@@H]4O[C@@H](C)[C@@H](O)[C@@H](O)[C@@H]4O)nn3)COCc3cn(CC[C@@H]4O[C@@H](C)[C@@H](O)[C@@H](O)[C@@H]4O)nn3)nn2)[C@@H](O)[C@H](O)[C@@H]1O [Dendrimer 9]", "assigned-category": "f"}

Recorded values, source paper PMC6797808.
